Recorded values, source PubChem BioAssay (NCI).

Test system: SNB-75 CNS
Assay: NCI-60 one-dose screen, 48 h (100 = growth as untreated, 0 = no growth, -100 = all killed)
Conditions: 10 µM unless noted
This is part of a sample that, as a whole, favours compounds with a hit. Of some 83,000 tested, about 20% had one in any assay.
Kindly state growth for each of the entries shown.
Record the value in %, omitting the unit from your answer.

The value of growth measured for the molecule `COc1cccc(-c2nn(-c3ccccc3)cc2-c2ccnc(NCCCNC(=O)Nc3ccc(Cl)c(Cl)c3)c2)c1` turned out to be 25.4

get_value(item= `O=C(CSc1nnc(-c2ccc(NC(=O)c3cccnc3)cc2)o1)Nc1cccc(Br)c1` , readout=growth) returns 72.1

Given item CC1CC2Oc3ccc(Cl)cc3C(=O)N2O1 (stereo not given) , the value recorded as its growth is 101

The molecule identified as `O=C1/C(=C/c2ccc(Br)cc2)C=C(c2ccccc2)N1CCc1ccccc1` registered its growth at -34.3

# growth of `COc1ccc(-c2cc(-c3cc(OC)c(OC)c(OC)c3)c(C#N)c(N3CCOCC3)n2)cc1O` = 30.1

---

System: MDA-MB-435 melanoma
Assay: NCI-60 one-dose screen, 48 h (100 = growth as untreated, 0 = no growth, -100 = all killed)
Conditions: 10 µM unless noted
About 83,000 compounds went through this panel and 20% of them were active in at least one assay; those are over-represented in the sample as a whole.
measurement_name: growth (%)
Give the value in % but do not write % after it.

# compound `Cc1cc(C(=O)c2ccccc2)c(C)c2c1[nH]c1ccc(Cl)cc12` ; its growth = -25.4

For `COc1ccc(NC(=O)c2nc(-c3cc(OC)c(OC)c(OC)c3)n(-c3cccc4ccccc34)n2)cc1OC` the compound record lists growth as 47.4

Record `C[C@H]1[C@H]2[C@H]3CC[C@@H]4[C@@]5(C)C/C(=C/c6ccco6)C(=O)C(C)(C)[C@@H]5CC[C@@]4(C)[C@]3(C)CC[C@]23CO[C@]1(C)[C@@H](C(=O)/C=C\c1ccco1)C3` , field growth: 43.4

Lab note: measured growth of `C=C(C)[C@@H]1CC[C@]2(C)[C@H](CC=C3[C@@H]4CC(C)(C)CC[C@]4(C(N)=O)CC[C@]32C)[C@@]1(C)CCC#N` was 17.7

So, `Cc1cc(Cl)ccc1Nc1nc(C(F)(F)F)ccc1C(=O)N/N=C/c1ccc(N(C)C)cc1` ? Its growth was 43.7

growth reading for `COc1ccc(-c2c(N)n[nH]c2-c2ccc(Cl)cc2O)cc1OC` : 69.7

Given item `COc1ccc2c(c1)O/C(=C/c1ccc(OCC(=O)c3ccccc3)cc1)C2=O` , the value recorded as its growth is 87

Reported growth of `COc1cc(-c2n/c(=C\c3c(O)[nH]c4ccc(Cl)cc34)cc3c2=Nc2ccccc2-3)cc(OC)c1OC` : 16.6

---

Tested on: 786-0 renal
Experiment: NCI-60 one-dose screen, 48 h
Conditions: 10 µM unless noted
Compounds without any hit were thinned out: in the full panel of roughly 83,000, 20% have a hit. Activity calls are given as the source filed them. Rule for the calls: active = growth percent below 10; inactive = the rest.
// one of active, inactive, no free text

Write down the call the test reported for this compound. Item: `N#Cc1c(N)nc2c(C#N)c(NC(=O)c3ccccc3)nn2c1-c1ccccc1`
inactive

Entry `COC(=O)c1ccc(CSc2nnc(-c3c(C)nc4ccc(C)cn34)o2)cc1` : call = ?
inactive

Could you please tell me the result logged for CCN1C(=O)N(CC)C2C1NN=c1s/c(=C\c3cccs3)c(=O)n12 (stereo unspecified) in this assay?
inactive

Identify the outcome logged in this assay for the compound shown: `COc1ccc(-c2nc(SCCC(C)C)nc(N/N=C\c3cccc([N+](=O)[O-])c3)c2C#N)cc1`
inactive

Record request — test call for `CCOC(=O)C/C(C)=N\NC(=O)c1ccncc1`
inactive

Hello, I am checking results. What call was entered for `COc1ccc(NC(=O)CSc2nnc(-c3cc(-c4ccccc4)nc4ccccc34)n2-c2ccccc2)cc1` ?
inactive

// param item: `COc1ccc(-c2cc(-c3ccc(Nc4nc(Nc5ccc(Cl)cc5)nc(Nc5ccc(Cl)cc5)n4)cc3)nc(N)c2C#N)cc1` ; yields the recorded call
inactive

Record request — test call for `O=C1/C(=C/c2ccc(Br)cc2)C=C(c2ccccc2)N1CCc1ccccc1`
active

Dear all, I need the recorded test outcome for `CNC(=O)CCN1CCN(CC/C=C2\c3ccccc3Sc3ccc(Cl)cc32)CC1` , thank you.
inactive

Which result was noted for this compound in the test: `C=CCSc1nc2ccccc2cc1/C=N/O`
inactive

Outcome? `Cc1c2c(c(C)c3c1oc1cc(O)ccc13)C(=O)N(CCN1CCCCC1)C2=O`
inactive

// param item: `CCCCNC(=O)Oc1ccc2c(=O)c3sc4c(=O)c5ccccc5c(=O)c4c3c(=O)c2c1` ; yields the recorded call
active

Record lookup: outcome of this test for `Fc1cnc(NC2CC2)nc1-c1cnc2ccc(N3CCOCC3)cn12` ?
inactive

Which result was noted for this compound in the test: `N#Cc1c(N2CCNCC2)nc2sc3cc(Cl)c(Cl)cc3n2c1=N`
inactive

Just curious, what result did `O=C(NCCCNc1cc(-c2cn(-c3ccccc3)nc2-c2cccc(O)c2)ccn1)c1ccccc1` get here?
active

Would you mind telling me which call this test gave `Cc1cc(Cl)nc(NCc2cc(Nc3ccnc4cc(Cl)ccc34)ccc2F)n1` ?
inactive

For this compound, state the assay outcome: `COc1cc(Cn2ncc3ccc(NC(=O)c4cc5ccccc5oc4=N)cc32)cc(OC)c1OC`
inactive

What is the recorded call for this compound in the test? `CCN(CC)CCn1nc2c3c(cccc3c1=O)-c1ccccc1-2`
inactive

Hi, do you know how `COc1ccc(N2CCN(c3nc(-c4cc(OC)c(OC)c(OC)c4)nc4ccccc34)CC2)cc1` came out in this test?
inactive

Hello, I am checking results. What call was entered for CC1=C([Se]CC(OC(=O)[C@@H](CO)NC(=O)OC(C)(C)C)C(=O)NC(C)(C)C)C(=O)c2ccccc2C1=O (stereo partly specified) ?
active

Record lookup: outcome of this test for `COc1ccc(CN2C(=O)C(Cl)=C(Nc3cccc(C(F)(F)F)c3)C2=O)cc1` ?
inactive

For `COc1ccc(NC(=O)CSc2nnc(-c3cc(-c4ccc(S(N)(=O)=O)cc4)nc4ccccc34)n2-c2ccccc2)cc1` , what call appears in the results of this test?
inactive

Which outcome was entered for the compound `N#Cc1c(-c2ccccn2)[nH]c(=S)[nH]c1=O` in this test?
inactive

Identify the outcome logged in this assay for the compound shown: `CCOC(=O)c1ccc(N2NC(=O)/C(=C/c3ccc([N+](=O)[O-])o3)C2=O)cc1`
inactive

What classification did `CN1CCN(CCCOc2ccc3nc(Nc4ccc(F)c(F)c4)ccc3c2)CC1` end up with in this test?
active

What call does the record list for `NC(N)=Nc1nc2ccccc2n2c1nc1ccccc12` ?
inactive

Hi, do you know how `O=C(COc1ccc(/C=C2\Oc3ccccc3C2=O)cc1)Nc1nc2ccccc2s1` came out in this test?
inactive

Please indicate how the test categorized `NC1=NCc2nc3ccccc3c(=O)n2C1` .
inactive

Field: outcome | Entry: `CC/C=C1/C(=O)C=C[C@@H]1C/C=C\CCCC(=O)O`
inactive

Dear all, I need the recorded test outcome for `Clc1cccc(Cl)c1C(Nc1nc2ccccc2s1)Nc1nc2ccccc2s1` , thank you.
inactive

Lab log entry: `COc1cccc(-c2nc3sccn3c2/C=C/C(=O)c2ccc(C(F)(F)F)cc2)c1` — outcome as called in the assay?
inactive

Each compound tested received a call. Report the one for `O=C1NC(=Nc2ccc(Cl)cc2)S/C1=C\c1cn(-c2ccccc2)nc1-c1ccccc1` .
inactive

Give the logged outcome of this assay for the following compound: `Cc1cc(=O)[nH]c(N=Nc2c(O)[nH]c3ccccc23)n1`
inactive

Identify the outcome logged in this assay for the compound shown: O=C1CCC2=C3C4CCCCC4C(=O)C4CCCC(OC2C1)C34 (stereo unspecified)
active

Any idea what this test logged for `O=C(Nc1ccc(Cl)cc1)Nc1ccc(Cl)c(C(F)(F)F)c1` ?
inactive

Outcome logged for `CCCCCCCCCCN(CCCCCCCCCC)CC(=O)c1ccc2cc(Br)c3ccccc3c2c1` in this assay:
inactive

Any idea what this test logged for `N#C/C(=C\c1ccc2c(c1)OCO2)n1nnc2cc(F)c(F)cc21` ?
inactive

What classification did `COc1ccc(N=C(c2ccccc2)C2C(=O)c3ccccc3C2=O)cc1` end up with in this test?
inactive

So what was the verdict on `COc1ccc(-c2nc3ccc4[nH]ncc4c3c3c2CCCC3)cc1B(O)O` in this test?
inactive

Hey, what did the test say about `COc1ccc(N=Nc2ccc(O)c(=O)cc2)cc1` ?
inactive

In this assay, the call recorded for `Cn1ccc2c(c1=O)C(=O)c1nccc3c1c-2nc1ccccc13` was what?
active

---

Test system: ACHN renal
Experiment: NCI-60 one-dose screen, 48 h
Conditions: 10 µM unless noted
Compounds without any hit were thinned out: in the full panel of roughly 83,000, 20% have a hit. Activity calls are given as the source filed them. The calls were made as follows: active = growth percent below 10; inactive = the rest.
API: response.call in Yes = active, No = inactive

Outcome logged for O=C(O)C1CCC(=O)N1C(=O)OCc1ccccc1 (centres undefined) in this assay:
No

Name the outcome recorded for `COc1cccc(-c2nc3sccn3c2-c2ccnc(NCCNS(=O)(=O)c3ccc(C(F)(F)F)cc3)c2)c1` in the assay.
Yes

Can you look up the reported call for `O=C(CCc1nnc(CN(c2ccccc2)c2ccccc2)o1)c1nc2ccccc2[nH]1` for me?
No

Given `Cc1c(C(=O)OC(=NC2CCCCC2)NC2CCCCC2)sc2c1c(=O)nc1c(C#N)n[nH]n12` , state the outcome it received in this test.
No

Please indicate how the test categorized `O=c1[nH]nc(-c2ccccc2)c2c(-c3ccccc3)onc12` .
No

Please state the recorded outcome for this compound: `C[C@@]1(CCC#N)[C@H]2CC[C@@H]3[C@H]4[C@H](C(=O)/C=C/c5cccnc5)CC[C@]4(C#N)CC[C@@]3(C)[C@]2(C)CC[C@H]1C(=O)/C=C/c1cccnc1`
No

Could you kindly confirm the outcome this assay logged for `Cn1ccc2c(c1=O)C(=O)c1nccc3c1c-2nc1ccccc13` ?
No

Would you mind telling me which call this test gave `O=C(Nc1cccc(Cl)c1)c1cc(N=Nc2ccc([N+](=O)[O-])cc2Cl)ccc1O` ?
No

Can you look up the reported call for `CCn1c(C)nc2cc(C(N)=O)ccc21` for me?
No
